target: human FGF-1 (flg) receptor tyrosine kinase (Homo sapiens, UniProt P11362); construct: amplify a fragment of DNA that codes for the intracellular tyrosine kinase domain; made in house; host or cells: SF9 insect cells (baculovirus); experiment: FGF receptor tyrosine kinase assay (32P incorporation into glutamate-tyrosine co-polymer); format: biochemical; conditions: read-out: FGFr-TK % Inhibition at 50 µM
Sequence (P11362 478-767 limits assumed): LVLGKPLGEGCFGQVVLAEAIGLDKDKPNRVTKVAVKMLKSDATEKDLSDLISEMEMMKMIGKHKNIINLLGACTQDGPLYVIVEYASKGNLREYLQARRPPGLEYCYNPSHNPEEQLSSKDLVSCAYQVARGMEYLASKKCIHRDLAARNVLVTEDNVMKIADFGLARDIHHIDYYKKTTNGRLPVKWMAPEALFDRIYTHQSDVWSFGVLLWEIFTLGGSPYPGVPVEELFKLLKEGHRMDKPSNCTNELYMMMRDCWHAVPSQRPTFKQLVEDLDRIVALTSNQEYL
measurement_kind: inhibition at 50 µM (%)

Use the examples below as a reference point.
CCn1c(=O)c(-c2cc(C)cc(C)c2)cc2cnc(Nc3ccccc3)nc21 [Example 118]
29
Cc1cccc(C)c1-c1cc2cnc(N)nc2n(C)c1=N [Example 7]
28

a: CCn1c(=O)c(-c2ccncc2)cc2cnc(Nc3ccccc3)nc21 [Example 120]
b: CSc1ncc2cc(-c3c(Cl)cccc3Cl)c(=O)n(C)c2n1 [Example 37]
Query: Param pair: a , b . Output: the one whose inhibition at 50 µM is numerically greater. Indicate which entry you chose by stating its label.
Response: b

1: CCOCCOc1ncc2cc(-c3c(Cl)cccc3Cl)c(=N)n(C)c2n1 [Example 22]
2: CN(C)c1ncc2cc(-c3c(Cl)cccc3Cl)c(=O)n(C)c2n1 [Example 41]
Query: // pick min by inhibition at 50 µM: 1 , 2 // respond with label for picked entry
Response: 2
